testTarget: human P2X3 receptor (Homo sapiens (Human))
Sequence (P56373 whole entry): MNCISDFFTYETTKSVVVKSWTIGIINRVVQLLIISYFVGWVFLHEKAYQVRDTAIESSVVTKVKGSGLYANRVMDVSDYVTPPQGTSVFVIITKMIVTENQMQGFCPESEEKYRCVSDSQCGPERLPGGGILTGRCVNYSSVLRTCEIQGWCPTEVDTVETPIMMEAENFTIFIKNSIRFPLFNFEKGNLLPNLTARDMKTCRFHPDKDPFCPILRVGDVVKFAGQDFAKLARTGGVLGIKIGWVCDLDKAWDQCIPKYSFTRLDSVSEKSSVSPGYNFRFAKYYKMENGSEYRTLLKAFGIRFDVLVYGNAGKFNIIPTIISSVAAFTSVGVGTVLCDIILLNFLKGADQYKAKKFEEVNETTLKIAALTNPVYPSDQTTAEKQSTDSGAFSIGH
procedureSummary: Evaluation of human P2X3 receptor inhibitory activity (Fluo-3 calcium fluorescence, FDSS 3000, ATP stimulation);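 note: stimulus was 50 nM ATP with fluorescence followed for 3 min, and the response per well was peak post-ATP fluorescence divided by the reading at measurement start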
Format: cell-based
setupConditions: C6BU-1 cells stably expressing human P2X3 receptor
pIC50: −log10 of the molar value.
Overview of recorded pIC50 for various molecules

{"molecule": "COC(=O)NCCn1c(=O)[nH]/c(=N\\c2ccc(OC(C)C)c(F)c2)n(Cc2ccc(Cl)cc2)c1=O [Compound I-0607]", "pIC50": 7.92}
{"molecule": "Cc1[nH]c2ccc(/N=c3\\[nH]c(=O)n(C[C@H]4COC(C)(C)O4)c(=O)n3Cc3ccc(Cl)cc3)cc2c1C [Compound I-2039]", "pIC50": 8.05}
{"molecule": "Cc1ccc(Cn2c(=O)n([C@@H](C)[C@@H](C)C(=O)O)c(=O)[nH]/c2=N\\c2ccc(CC(C)C)c(Cl)c2)cc1 [Compound I-1443]", "pIC50": 8.22}
{"molecule": "COC(=O)[C@@H](C)Cn1c(=O)[nH]/c(=N\\c2cnc(OC3CCC3)c(Cl)c2)n(Cc2ccc(Cl)cc2)c1=O [Compound I-1399]", "pIC50": 7.30}
{"molecule": "CC(C)Oc1ccc(/N=c2\\[nH]c(=O)n(CCc3n[nH]c(=O)o3)c(=O)n2Cc2ccc(Cl)cc2)cc1F [Compound I-0646]", "pIC50": 7.55}
{"molecule": "CCCn1c(=O)[nH]/c(=N\\c2ccc(Oc3ccc(C(=O)O)nc3)cc2)n(Cc2ccc(Cl)cc2)c1=O [Compound I-2161]", "pIC50": 7.85}
{"molecule": "COC(=O)[C@@H](C)Cn1c(=O)[nH]/c(=N\\c2ccc3c(c2)CCO3)n(Cc2ccc(Cl)cc2)c1=O [Compound I-0770]", "pIC50": 6.39}
{"molecule": "O=C(O)CCn1c(=O)[nH]/c(=N\\c2ccc(Oc3cncc(F)c3)cc2)n(Cc2ccc(Cl)cc2)c1=O [Compound I-1412]", "pIC50": 7.96}
{"molecule": "CCCOc1ccc(/N=c2\\[nH]c(=O)n(C[C@H](C)C(=O)OC)c(=O)n2Cc2ccc(Cl)cc2)cc1Cl [Compound I-0743]", "pIC50": 7.89}
{"molecule": "Cc1ccc(Cn2c(=O)n(C[C@H](C)C(=O)O)c(=O)[nH]/c2=N\\c2cnc(OC3CCCC3)c(Cl)c2)cc1 [Compound I-1477]", "pIC50": 7.17}
{"molecule": "CCOC(=O)c1cc2cc(/N=c3\\[nH]c(=O)n(C[C@H](C)C(=O)OC)c(=O)n3Cc3ccc(Cl)cc3)ccc2o1 [Compound I-1938]", "pIC50": 6.51}
{"molecule": "CCOC(=O)CCn1c(=O)[nH]/c(=N\\c2ccc(CC(C)C)c(C)c2)n(Cc2ccc(C)cc2)c1=O [Compound I-1216]", "pIC50": 7.89}
{"molecule": "CCCn1c(=O)[nH]/c(=N\\c2ccc(Oc3ccc(C(N)=O)nc3)cc2)n(Cc2ccc(Cl)cc2)c1=O [Compound I-2203]", "pIC50": 9.00}
{"molecule": "CNC(=O)c1cc(Oc2ccc(/N=c3\\[nH]c(=O)[nH]c(=O)n3Cc3ccc(Cl)cc3)cc2F)ccn1 [Compound I-2101]", "pIC50": 7.59}
{"molecule": "CCn1c(=O)[nH]/c(=N\\c2ccc(Oc3ccc(N)nc3)cc2)n(Cc2ccc(Cl)cc2)c1=O [Compound I-2214]", "pIC50": 7.66}
{"molecule": "CC(C)Oc1ccc(/N=c2\\[nH]c(=O)n([C@H]3C[C@@H]3C(=O)O)c(=O)n2Cc2ccc(Cl)cc2)cc1F [Compound I-0675]", "pIC50": 7.43}
{"molecule": "Cc1ccc(Cn2c(=O)n(C[C@H](C)C(=O)O)c(=O)[nH]/c2=N\\c2ccc(CC(C)C)c(Cl)c2)cc1 [Compound I-1373]", "pIC50": 8.40}
